All values here come from the Deep4Chem optical property database.

- protocolSummary: photoluminescence quantum yield (fraction); solvent given as SMILES
- conditionSet: in c1cc(-c2cccc(-n3c4ccccc4c4ccccc43)c2)cc(-n2c3ccccc3c3ccccc32)c1
measure: photoluminescence quantum yield
// return just the number, without any unit appended

> print(dat)
                                     smiles  experimentalvalue
1  CC(C)(C)c1ccc2c(c1)c1cc(C(C)(C)C)ccc1n2-c1cc(C(=O)c2cccnc2)cc(-n2c3ccc(C(C)(C)C)cc3c3cc(C(C)(C)C)ccc32)c1               0.92
2  N#Cc1cc(-n2c3ccccc3c3ccccc32)c(C#N)cc1-n1c2ccccc2c2ccccc21               0.87

Find the measured photoluminescence quantum yield of `Cc1cc(-c2nc(-c3ccccc3)nc(-c3ccccc3)n2)ccc1-c1ccc2c(c1)C1(c3ccccc3-c3ccccc31)c1ccccc1N2c1ccccc1` and report it.
1

* * *

- protocolSummary: photoluminescence quantum yield (fraction); solvent given as SMILES
- conditionSet: in CC#N
Readings of photoluminescence quantum yield for the listed molecules
No unit in the answer, please; the number alone is enough.

# example entries with known answers
smiles	measure	experimentalValue
Cc1cc2c(o1)=CC1=C(C(F)(F)F)c3cc4oc(C)cc4n3[B-](F)(F)[N+]=21	photoluminescence quantum yield	0.84
COC(=O)CC1(C(=O)OC)Oc2c(c(C(C)=O)c3c(c2C(C)=O)OCO3)O1	photoluminescence quantum yield	0.62
COc1cc(C=O)cc(-c2[nH]c(=O)n3c2-c2ccccc2C3=O)c1O	photoluminescence quantum yield	0.33

// Input: `CC1=[N+]2C(=C(c3ccccc3)c3c4c(c(C)n3[B-]2(F)F)C2CCC4CC2)C2=C1C1CCC2CC1` . Output its photoluminescence quantum yield only.
0.81

Using the record for `N#Cc1ccc(/C=C/c2ccc3ccc4cccc5ccc2c3c45)cc1` , state its measured photoluminescence quantum yield.
0.26

Tell me its photoluminescence quantum yield given `CCCCCCc1ccc2c3c(ccc2c1)O[B-](c1ccccc1)(c1ccccc1)[N+](c1ccc([N+]2=Cc4c(ccc5cc(CCCCCC)ccc45)O[B-]2(c2ccccc2)c2ccccc2)cc1)=C3` as the entry.
0.27
